# Measured Target: T1, human TL1A extracellular domain with N-terminal HIS and FLAG tag (human, UniProt O95150 72-251)
# T1 construct: the whole entry is named
# T1 sequence: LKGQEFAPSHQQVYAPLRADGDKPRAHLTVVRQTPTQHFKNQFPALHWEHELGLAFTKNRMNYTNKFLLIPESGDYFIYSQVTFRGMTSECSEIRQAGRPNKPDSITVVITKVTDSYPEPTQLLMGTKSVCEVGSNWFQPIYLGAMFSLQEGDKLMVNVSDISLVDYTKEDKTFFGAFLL
# Protocol Notes: SPR Run 6, purified Ab captured on Protein A, TL1A 5 ug/mL, timepoint 44
Observation Type: TL1A Binding Level (Early) (RU)

# Binder, U, Test Result
measured = [
    ("320-477 (antibody, human IgG1, name in Kabat numbering, V domains shown, human IgG1, lambda) VH: QVQLVQSGAEVKKPGASVKVSCKASGYTFTHYDINWVRQAPGQGLEWMGWLNPNSGNTGYAQKFQGRVTMTADRSTSTAYMELSSLRSEDTAVYYCAREVPETAAFEYWGQGTLVTVSS VL: QSVLTQPPSVSGAPGQRVTISCTSSSSDIGAGLGVHWYQQLPGTAPKLLIEGYYNRPSGVPDRFSGSKSGTSASLTITGLLPEDEGDYYCQSYDGTLSALFGGGTKLTVLG", "RU", 148),
    ("320-439 (antibody, human IgG1, name in Kabat numbering, V domains shown, human IgG1, lambda) VH: QVQLVQSGAEVKKPGASVKVSCKASGYTFTSSDINWVRQAPGQGLEWMGWLNPNSGNTGYAQKFQGRVTMTADRSTSTAYMELSSLRSEDTAVYYCAREVPETAAFEYWGQGTLVTVSS VL: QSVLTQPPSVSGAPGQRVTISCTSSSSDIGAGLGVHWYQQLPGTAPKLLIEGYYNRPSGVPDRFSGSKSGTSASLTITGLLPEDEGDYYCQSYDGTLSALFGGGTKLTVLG", "RU", 119),
]
